# target_entity: T1, FGF18 (UniProt O76093 28-207)
# T1 construct: fibroblast growth factor 18 (FGF18)
# T1 sequence (looked up): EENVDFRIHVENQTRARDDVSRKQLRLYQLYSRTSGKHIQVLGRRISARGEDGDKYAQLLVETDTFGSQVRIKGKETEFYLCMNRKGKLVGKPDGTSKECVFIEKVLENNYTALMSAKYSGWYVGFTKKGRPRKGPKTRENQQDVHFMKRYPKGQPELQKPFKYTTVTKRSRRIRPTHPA
# procedure_details: SPR; BIAcore X-100; FGF8b (20 μg/ml in 10 mM sodium acetate, pH 6.0) or other FGFs (10 mM sodium acetate at optimal pH) immobilised on a CM5 sensor chip by EDC/NHS; peptide injected (ARPCA 8 μM to 2000 μM), 4 min at 30 μl/min, 10 min dissociation, in HBS; equilibrium values fitted with the Langmuir equation for monovalent binding
# particulars: both partners purified
measurement_label: pKd
Give bare numbers, as −log10 of the molar value.

Quickly give me recorded pKd for Ac-ARPCA-NH2 (long pentraxin-3 (PTX3), residues 100-104 of the N-terminal extension; source: synthetic peptide, provided by R. Longhi and A. Gori (CNR, Milano, Italy)) [Ac-ARPCA-NH2, acetylated pentapeptide corresponding to PTX3(100-104)]
4.59

Taken from paper PMC4537050.
